Values were extracted from ChEMBL document CHEMBL3991601.

Molecular target: Ephrin type-B receptor 6 (Homo sapiens, UniProt O15197); further: in the data inactive means no Kd found up to 30 µM
Sequence (O15197 whole entry): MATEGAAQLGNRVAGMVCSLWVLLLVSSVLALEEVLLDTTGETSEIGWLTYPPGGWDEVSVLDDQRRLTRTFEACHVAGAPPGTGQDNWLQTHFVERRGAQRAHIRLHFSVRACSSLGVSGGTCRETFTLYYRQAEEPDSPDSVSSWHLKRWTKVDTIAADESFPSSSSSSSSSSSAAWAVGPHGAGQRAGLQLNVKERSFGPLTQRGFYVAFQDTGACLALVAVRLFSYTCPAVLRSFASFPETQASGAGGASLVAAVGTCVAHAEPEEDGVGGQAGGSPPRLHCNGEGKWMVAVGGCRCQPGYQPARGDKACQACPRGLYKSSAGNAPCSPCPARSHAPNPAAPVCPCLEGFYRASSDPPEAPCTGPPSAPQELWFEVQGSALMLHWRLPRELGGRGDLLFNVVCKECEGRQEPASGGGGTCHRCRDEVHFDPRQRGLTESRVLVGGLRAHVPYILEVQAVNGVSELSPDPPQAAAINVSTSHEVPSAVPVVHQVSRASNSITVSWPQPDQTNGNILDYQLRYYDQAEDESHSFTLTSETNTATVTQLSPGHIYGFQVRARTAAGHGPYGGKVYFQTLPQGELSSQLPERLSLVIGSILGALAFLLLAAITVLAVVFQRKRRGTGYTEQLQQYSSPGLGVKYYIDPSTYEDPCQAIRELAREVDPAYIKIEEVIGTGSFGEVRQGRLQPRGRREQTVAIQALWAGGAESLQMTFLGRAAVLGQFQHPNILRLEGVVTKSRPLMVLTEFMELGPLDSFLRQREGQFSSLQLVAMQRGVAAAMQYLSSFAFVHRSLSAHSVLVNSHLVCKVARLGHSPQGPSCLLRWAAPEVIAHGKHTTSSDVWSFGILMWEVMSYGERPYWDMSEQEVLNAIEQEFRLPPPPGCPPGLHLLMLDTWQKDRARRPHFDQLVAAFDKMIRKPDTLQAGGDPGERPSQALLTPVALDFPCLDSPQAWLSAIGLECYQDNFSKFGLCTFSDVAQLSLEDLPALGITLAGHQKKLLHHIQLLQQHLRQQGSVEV
The source made the active and inactive calls.
Labels: active, inactive

>>> category_label("Cc1cc(Nc2ncnc3ccc(NC4=NC(C)(C)CO4)cc23)ccc1Oc1ccn2ncnc2c1")
"inactive"
>>> category_label("FC(F)(F)c1ccc(/C=C/c2nc(COc3ccc(CCCCn4ccnn4)cc3)co2)cc1")
"inactive"
>>> category_label("O=C(Nc1c[nH]nc1-c1nc2cc(CN3CCOCC3)ccc2[nH]1)NC1CC1")
"active"

###

Molecular target: Phosphatidylinositol 5-phosphate 4-kinase type-2 gamma (Homo sapiens, UniProt Q8TBX8); further: in the data inactive means no Kd found up to 30 µM
Sequence (Q8TBX8 whole entry): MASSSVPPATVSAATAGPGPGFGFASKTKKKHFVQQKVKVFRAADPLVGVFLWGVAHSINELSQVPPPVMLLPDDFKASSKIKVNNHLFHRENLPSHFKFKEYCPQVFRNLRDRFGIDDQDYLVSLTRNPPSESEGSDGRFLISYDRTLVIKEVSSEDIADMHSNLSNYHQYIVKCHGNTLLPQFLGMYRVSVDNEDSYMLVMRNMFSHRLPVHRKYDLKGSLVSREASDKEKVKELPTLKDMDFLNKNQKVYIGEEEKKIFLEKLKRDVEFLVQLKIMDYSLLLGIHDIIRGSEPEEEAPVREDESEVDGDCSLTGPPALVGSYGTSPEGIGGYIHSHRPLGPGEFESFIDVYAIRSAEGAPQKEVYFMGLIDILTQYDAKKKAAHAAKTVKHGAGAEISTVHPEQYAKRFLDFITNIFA
Calls of active or inactive are those of the source.
Labels: t for active, f for inactive

>>> category_label("C=CC(=O)N1CCC[C@H](n2c(=O)n(-c3ccc(Oc4ccccc4)cc3)c3c(N)ncnc32)C1")
"f"
>>> category_label("COc1ncc(-c2ccc3nccc(-c4ccnnc4)c3c2)cc1NS(=O)(=O)c1ccc(F)cc1F")
"t"
>>> category_label("Cc1cccc(-c2nn3c(c2-c2ccnc4ccc(C(N)=O)cc24)CCC3)n1")
"f"
>>> category_label("O=c1[nH]ccc2cc(OC3CCNCC3)ccc12 [SAR-407899 FREE BASE]")
"f"
>>> category_label("CC(C)(C)c1nc(-c2cccc(NS(=O)(=O)c3c(F)cccc3F)c2F)c(-c2ccnc(N)n2)s1")
"f"
>>> category_label("C#Cc1cccc(Nc2ncnc3cc(OC)c(OCCCCCCC(=O)NO)cc23)c1")
"f"
>>> category_label("Cc1cc(C(=O)NOCCO)c(Nc2ccc(I)cc2F)n(C)c1=O")
"f"
>>> category_label("O=C1NC(=O)[C@@H](c2cn3c4c(cccc24)CCC3)[C@@H]1c1c[nH]c2ccccc12 [TIVANTINIB]")
"f"
>>> category_label("COCC(=O)NC/C=C/c1ccc2ncnc(Nc3ccc(Oc4ccc(C)nc4)c(C)c3)c2c1")
"f"
>>> category_label("C[C@@H](Oc1cc(C(=O)Nc2ccc(C(=O)N3CCN(C)CC3)cc2)nnc1N)c1c(Cl)ccc(F)c1Cl")
"f"
>>> category_label("NC1(c2ccc(-c3nc4ccn5c(=O)[nH]nc5c4cc3-c3ccccc3)cc2)CCC1")
"f"
>>> category_label("O=C(Nc1cc(C(F)(F)F)cc(C(F)(F)F)c1)c1cc(Cl)ccc1O")
"f"
